# Tested on: FL5.12/Bcl-2 cells
# test summary: FL5.12/Bcl-2 cell viability assay
# Type: cell-based, murine
# test context: ratio of canine platelet EC50 to FL5.12/Bcl-2 EC50
readout kind: Selectivity Ratio (Platelet EC50/FL5.12/Bcl-2 EC50)
Enter a number only.

Solved cases (5 shown):
record smiles	assay result
CN(C)CCCNc1ccc(S(=O)(=O)NC(=O)c2ccc(N3CCN(CC4=C(c5ccc(Cl)cc5)CC(C)(C)CC4)CC3)cc2Oc2ccc3[nH]ccc3c2)cc1[N+](=O)[O-]	1697
CC1(C)CCC(CN2CCN(c3ccc(C(=O)NS(=O)(=O)c4ccc(NCCCN5CCOCC5)c([N+](=O)[O-])c4)c(Oc4ccccc4)c3)CC2)=C(c2ccc(Cl)cc2)C1	241
CN1CCC(Nc2ccc(S(=O)(=O)NC(=O)c3ccc(N4CCN(CC5=C(c6ccc(Cl)cc6)CCCC5)CC4)cc3Oc3ccc4[nH]ccc4c3)cc2[N+](=O)[O-])CC1	821
CN1CCC(Nc2ccc(S(=O)(=O)NC(=O)c3ccc(N4CCN(CC5=C(c6ccc(Cl)cc6)CC(C)(C)CC5)CC4)cc3Oc3ccc4[nH]ccc4c3)cc2S(=O)(=O)C(F)(F)Cl)CC1	1989
CN(C)CCOc1ccc(-c2ccc(Cl)cc2)c(CN2CCN(c3ccc(C(=O)NS(=O)(=O)c4ccc(NCC5CCOCC5)c([N+](=O)[O-])c4)c(Oc4cccc5[nH]ccc45)c3)CC2)c1	4719

What value of Selectivity Ratio (Platelet EC50/FL5.12/Bcl-2 EC50) has been reported for the following compound? `CC1(C)CCC(CN2CCN(c3ccc(C(=O)NS(=O)(=O)c4ccc(NCCCN5CCCC5)c([N+](=O)[O-])c4)c(Oc4cccc5[nH]ccc45)c3)CC2)=C(c2ccc(Cl)cc2)C1`
996

What value of Selectivity Ratio (Platelet EC50/FL5.12/Bcl-2 EC50) has been reported for the following compound? `CN1CCC(Nc2ccc(S(=O)(=O)NC(=O)c3ccc(N4CCN(CC5=C(c6ccc(Cl)cc6)CCCCC5)CC4)cc3Oc3cccc4[nH]ccc34)cc2[N+](=O)[O-])CC1`
1895

What value of Selectivity Ratio (Platelet EC50/FL5.12/Bcl-2 EC50) has been reported for the following compound? `CN1CCN(Nc2ccc(S(=O)(=O)NC(=O)c3ccc(N4CCN(CC5=C(c6ccc(Cl)cc6)CC(C)(C)CC5)CC4)cc3Oc3ccc4[nH]ccc4c3)cc2[N+](=O)[O-])CC1`
1857

What value of Selectivity Ratio (Platelet EC50/FL5.12/Bcl-2 EC50) has been reported for the following compound? `CN(C)CCOc1ccc(-c2ccc(Cl)cc2)c(CN2CCN(c3ccc(C(=O)NS(=O)(=O)c4ccc(NCCCN5CCCC5)c([N+](=O)[O-])c4)c(Oc4ccccc4)c3)CC2)c1`
8

What value of Selectivity Ratio (Platelet EC50/FL5.12/Bcl-2 EC50) has been reported for the following compound? `CN1CCC(Nc2ccc(S(=O)(=O)NC(=O)c3ccc(N4CCN(CC5=C(c6ccc(Cl)cc6)CCCC5)CC4)cc3Oc3cccc4[nH]ccc34)cc2[N+](=O)[O-])CC1`
1298

What value of Selectivity Ratio (Platelet EC50/FL5.12/Bcl-2 EC50) has been reported for the following compound? `CN1CCC(Nc2ccc(S(=O)(=O)NC(=O)c3ccc(N4CCN(CC5=C(c6ccc(Cl)cc6)CC(C)(C)CC5)CC4)cc3Oc3ccc4[nH]ccc4c3)cc2S(=O)(=O)C(F)(F)F)CC1`
221

What value of Selectivity Ratio (Platelet EC50/FL5.12/Bcl-2 EC50) has been reported for the following compound? `CN1CCN(CCCNc2ccc(S(=O)(=O)NC(=O)c3ccc(N4CCN(CC5=C(c6ccc(Cl)cc6)CC(C)(C)CC5)CC4)cc3Oc3cccc4[nH]ccc34)cc2[N+](=O)[O-])CC1`
2440
